# Assay Notes: Stability of cannabinoid entourage and Vitamin E components of the powder concentrate by LCMSMS
# Assay type: physicochemical
# Run Conditions: powder stored at 21-25° C.; 9 days
Metric: Stability of Plant-Derived Cannabinoid Compounds in Powder Concentrate
# output: number + unit

CCCc1cc(O)c2c(c1)OC(C)(C)[C@@H]1CCC(C)=C[C@@H]21 [THCV, delta-9-tetrahydrocannabivarin] = 0.693 mg/g powder

Query: Sample CCCCCc1cc(O)c2c(c1)OC1(C)CCC3C1C2C3(C)C (stereo not shown) — what was its Stability of Plant-Derived Cannabinoid Compounds in Powder Concentrate?
Reply: 0.050 mg/g powder

Query: What does the record list as Stability of Plant-Derived Cannabinoid Compounds in Powder Concentrate for C=C(C)[C@@H]1CCC(C)=C[C@H]1c1c(O)cc(CCC)cc1O ?
Reply: 0.049 mg/g powder

Query: // query Stability of Plant-Derived Cannabinoid Compounds in Powder Concentrate value for entry CCCCCc1cc2c(c(O)c1C(=O)O)[C@@H]1C=C(C)CC[C@H]1C(C)(C)O2 [D9 THCA, delta-9-tetrahydrocannabinolic acid]
Reply: 0.151 mg/g powder

Query: Look at this molecule and give its reported Stability of Plant-Derived Cannabinoid Compounds in Powder Concentrate. C=C(C)[C@@H]1CCC(C)=C[C@H]1c1c(O)cc(CCCCC)cc1O [CBD, cannabidiol, reference compound]
Reply: 6.01 mg/g powder

Query: Which Stability of Plant-Derived Cannabinoid Compounds in Powder Concentrate is reported for this molecule? CCCCCc1cc(O)c2c(c1)OC(C)(C)c1ccc(C)cc1-2
Reply: 0.466 mg/g powder

Query: Please look up its Stability of Plant-Derived Cannabinoid Compounds in Powder Concentrate: CCCCCc1cc(O)c2c(c1)OC(C)(C)[C@@H]1CCC(C)=C[C@@H]21 [D9 THC, delta-9-tetrahydrocannabinol, reference compound]
Reply: 2.49 mg/g powder

====

Recorded measurements of Stability of Plant-Derived Cannabinoid Compounds in AB White, 21-25° C., one per entry
# Assay Notes: Stability of cannabinoid compounds and Vitamin E components in Beverage 1 (AB White) by LCMSMS
# Type: physicochemical
# Run Conditions: AB White stored at 21-25° C.; 5 days
Supply the numeric figure in µg/mL, leaving out any unit text.

Query: Record request: Stability of Plant-Derived Cannabinoid Compounds in AB White, 21-25° C. value, item CCCCCc1cc(O)c2c(c1)OC(C)(CCC=C(C)C)C=C2 (stereo not drawn)
Reply: 0.323

Query: // lookup Stability of Plant-Derived Cannabinoid Compounds in AB White, 21-25° C. for CCCCCc1cc(O)c2c(c1)OC(C)(C)c1ccc(C)cc1-2
Reply: 2.80

Query: Looking for the measured Stability of Plant-Derived Cannabinoid Compounds in AB White, 21-25° C. of C=C(C)[C@@H]1CCC(C)=C[C@H]1c1c(O)cc(CCCCC)c(C(=O)O)c1O , can you help?
Reply: 1.69

====

# Assay Notes: Stability of cannabinoid entourage and Vitamin E components of the powder concentrate by LCMSMS
# Format: physicochemical
# Run Conditions: powder stored at 21-25° C.; 540 days
Metric: Stability of Plant-Derived Cannabinoid Compounds in Powder Concentrate (mg/g powder)
The reply should contain only the number, in mg/g powder.

Query: // Stability of Plant-Derived Cannabinoid Compounds in Powder Concentrate lookup, key: C=C(C)[C@@H]1CCC(C)=C[C@H]1c1c(O)cc(CCCCC)cc1O [CBD, cannabidiol, reference compound]
Reply: 5.81

Query: Give the measured Stability of Plant-Derived Cannabinoid Compounds in Powder Concentrate of CCCc1cc(O)c2c(c1)OC(C)(C)[C@@H]1CCC(C)=C[C@@H]21 [THCV, delta-9-tetrahydrocannabivarin] .
Reply: 0.664

Query: # input compound: CCCCCc1cc(O)c2c(c1)OC(C)(CCC=C(C)C)C=C2 (stereo not shown) ; wanted: its Stability of Plant-Derived Cannabinoid Compounds in Powder Concentrate
Reply: 0.070

Query: # Stability of Plant-Derived Cannabinoid Compounds in Powder Concentrate lookup, item CCCCCc1cc(O)c(C/C=C(\C)CCC=C(C)C)c(O)c1
Reply: 1.07

====

# Assay Notes: Stability of cannabinoid entourage and Vitamin E components of the powder concentrate by LCMSMS
# Assay type: physicochemical
# Run Conditions: powder stored at 21-25° C.; 30 days
Metric: Stability of Plant-Derived Cannabinoid Compounds in Powder Concentrate (mg/g powder)
The reply should be a number in mg/g powder, with the unit left off.

Previously resolved entries follow.
C=C(C)[C@@H]1CCC(C)=C[C@H]1c1c(O)cc(CCCCC)cc1O [CBD, cannabidiol, reference compound] = 5.94
CCCCCc1cc(O)c(C/C=C(\C)CCC=C(C)C)c(O)c1 = 1.07
CCCCCc1cc(O)c2c(c1)OC(C)(C)[C@@H]1CCC(C)=C[C@@H]21 [D9 THC, delta-9-tetrahydrocannabinol, reference compound] = 2.66
C=C(C)[C@@H]1CCC(C)=C[C@H]1c1c(O)cc(CCC)cc1O = 0.051
CCCCCc1cc(O)c2c(c1)OC(C)(C)c1ccc(C)cc1-2 = 0.476

Please find the next compound below.
Query: # get_value(readout='Stability of Plant-Derived Cannabinoid Compounds in Powder Concentrate', item= CCCCCc1cc2c(c(O)c1C(=O)O)[C@@H]1C=C(C)CC[C@H]1C(C)(C)O2 [D9 THCA, delta-9-tetrahydrocannabinolic acid] )
Reply: 0.151

====

Stability of Plant-Derived Cannabinoid Compounds in AB Red: recorded values
# Assay Notes: Stability of cannabinoid compounds and Vitamin E components in Beverage 2 (AB Red) by LCMSMS
# Assay type: physicochemical
# Run Conditions: stored at 8° C., 270 days
Form entry: value (µg/mL) — number only.

CCCCCc1cc(O)c(C/C=C(\C)CCC=C(C)C)c(O)c1 = 4.66
CCCc1cc(O)c2c(c1)OC(C)(C)[C@@H]1CCC(C)=C[C@@H]21 [THCV, delta-9-tetrahydrocannabivarin] = 3.15
C=C(C)[C@@H]1CCC(C)=C[C@H]1c1c(O)cc(CCCCC)c(C(=O)O)c1O = 1.63
C=C(C)[C@@H]1CCC(C)=C[C@H]1c1c(O)cc(CCC)cc1O = 0.195
CCCCCc1cc(O)c2c(c1)OC(C)(C)c1ccc(C)cc1-2 = 2.76

Query: # get_value(readout='Stability of Plant-Derived Cannabinoid Compounds in AB Red', item= CCCCCc1cc(O)c2c(c1)OC(C)(C)[C@@H]1CCC(C)=C[C@@H]21 [D9 THC, delta-9-tetrahydrocannabinol, reference compound] )
Reply: 12.6

Query: Look at this molecule and give its reported Stability of Plant-Derived Cannabinoid Compounds in AB Red. CCCCCc1cc2c(c(O)c1C(=O)O)[C@@H]1C=C(C)CC[C@H]1C(C)(C)O2 [D9 THCA, delta-9-tetrahydrocannabinolic acid]
Reply: 1.33

Query: Entry CCCCCc1cc(O)c2c(c1)OC1(C)CCC3C1C2C3(C)C (stereo not drawn) : reported Stability of Plant-Derived Cannabinoid Compounds in AB Red = ?
Reply: 0.504

Query: Value lookup for Stability of Plant-Derived Cannabinoid Compounds in AB Red; key = CCCCCc1cc(O)c2c(c1)OC(C)(CCC=C(C)C)C=C2 (stereo not drawn)
Reply: 0.284

====

# Assay Notes: Stability of cannabinoid compounds and Vitamin E components in Beverage 2 (AB Red) by LCMSMS
# Assay type: physicochemical
# Run Conditions: stored at 8° C., 25 days
Below is a list of entries, each paired with its recorded Stability of Plant-Derived Cannabinoid Compounds in AB Red value.
# output: numeric value plus its unit

Worked cases, Stability of Plant-Derived Cannabinoid Compounds in AB Red given:
CCCCCc1cc2c(c(O)c1C(=O)O)[C@@H]1C=C(C)CC[C@H]1C(C)(C)O2 [D9 THCA, delta-9-tetrahydrocannabinolic acid] = 1.34 µg/mL
CCCCCc1cc(O)c2c(c1)OC(C)(CCC=C(C)C)C=C2 (stereo not shown) [CBC, cannabichromene] = 0.287 µg/mL
C=C(C)[C@@H]1CCC(C)=C[C@H]1c1c(O)cc(CCCCC)c(C(=O)O)c1O [CBDA, cannabidiolic acid] = 1.63 µg/mL

Attention now turns to another entry.
Query: Returns the measured Stability of Plant-Derived Cannabinoid Compounds in AB Red for the input molecule. Input: CCCCCc1cc(O)c(C/C=C(\C)CCC=C(C)C)c(O)c1 [CBG, cannabigerol]
Reply: 4.73 µg/mL

====

# Assay Notes: Stability of cannabinoid compounds and Vitamin E components in Beverage 2 (AB Red) by LCMSMS
# Type: physicochemical
# Run Conditions: stored at 8° C., 30 days
Reported Stability of Plant-Derived Cannabinoid Compounds in AB Red values are given for each entry in this list.
Respond with the bare value in µg/mL.

Sample answers from the record:
CCCCCc1cc(O)c(C/C=C(\C)CCC=C(C)C)c(O)c1 = 4.72
CCCCCc1cc(O)c2c(c1)OC(C)(C)c1ccc(C)cc1-2 = 2.77
CCCCCc1cc(O)c2c(c1)OC(C)(CCC=C(C)C)C=C2 (centres unmarked) = 0.282
CCCCCc1cc(O)c2c(c1)OC(C)(C)[C@@H]1CCC(C)=C[C@@H]21 [D9 THC, delta-9-tetrahydrocannabinol, reference compound] = 12.9

Query: Which Stability of Plant-Derived Cannabinoid Compounds in AB Red is listed for CCCCCc1cc2c(c(O)c1C(=O)O)[C@@H]1C=C(C)CC[C@H]1C(C)(C)O2 [D9 THCA, delta-9-tetrahydrocannabinolic acid] ?
Reply: 1.31
